Target: T1, mouse VEGF (mouse, UniProt Q00731-2 27-190)
T1 construct: Bought recombinant protein; also called mVEGF-A; mouse VEGF-A
T1 sequence (looked up): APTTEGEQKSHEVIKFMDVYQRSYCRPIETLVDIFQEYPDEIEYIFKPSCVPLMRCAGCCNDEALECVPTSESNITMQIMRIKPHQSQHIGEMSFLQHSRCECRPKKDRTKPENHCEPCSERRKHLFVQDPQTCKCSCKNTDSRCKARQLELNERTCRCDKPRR
Assay: ELISA and BIAcore
Test Readout: fold affinity over mother clone F

// below: answered binders
HF2-17 (antibody, V domains shown) VH: EVQLVESGGGLVQPGGSLRLSCAASGFMIRSHGMQWVRQAPGKGLEYVAGISSDGSWRRHSAAVEGRFTISRDDSKNTAYLQMNSLRAEDTAVYYCARDFSTGYGADSIDAWGQGTLVTVSS VL: DIQMTQSPSSLSASVGDRVTITCSGGSIEPLGYGWYQQKPGKAPKTLIYWDDKRPSGVPSRFSGSRSGTDFTLTISSLQPEDFATYYCGAWEYSGGVGIFGQGTKVEIK ... ≥ 10 times
HF2-21 (antibody, V domains shown) VH: EVQLVESGGGLVQPGGSLRLSCAASFQYFRSHGMQWVRQAPGKGLEYVAGISSDGSWYRVQAAVEGRFTISRDDSKNTAYLQMNSLRAEDTAVYYCARDFSTGYGADSIDAWGQGTLVTVSS VL: DIQMTQSPSSLSASVGDRVTITCSGGSMEPLGYGWYQQKPGKAPKTLIYWDDKRPSGVPSRFSGSRSGTDFTLTISSLQPEDFATYYCGAWEYSGGVGIFGQGTKVEIK ... ≥ 10 times

Please look at the following binder next.
The reported fold affinity over mother clone F of the binder HF2-8 (antibody, V domains shown, also called HF-8) VH: EVQLVESGGGLVQPGGSLRLSCAASGFHIRSHGMQWVRQAPGKGLEYVAGISSDGSWLKLSAAVEGRFTISRDDSKNTAYLQMNSLRAEDTAVYYCARDFSTGYGADSIDAWGQGTLVTVSS VL: DIQMTQSPSSLSASVGDRVTITCSGGSTYSLGYGWYQQKPGKAPKTLIYWDDKRPSGVPSRFSGSRSGTDFTLTISSLQPEDFATYYCGAWEYSGGVGIFGQGTKVEIK was ≥ 10 times
